Experiment: CCTE_Shafer_MEA_dev_firing_rate_mean: CCTE's Neural Network Formation Assay for Mean Firing Rate, Shafer Lab (AID 2284031);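 also: AUC of well mean spike rate recorded on DIV 5 7 9 and 12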
Active and inactive are the calls of the source. The calls were made as follows: active = hit-call score of the fitted dose curve at least 0.9, where 1 is the maximum; inactive = score below 0.9.
Respond with a class label; see active, inactive

Worked set:
-- ask Short answer needed: outcome of this test for O=C(CCCN1CCC(O)(c2ccc(Cl)cc2)CC1)c1ccc(F)cc1 ?
-- reply active

-- ask Give the logged outcome of this assay for the following compound: FCOC(C(F)(F)F)C(F)(F)F
-- reply inactive

Let us examine a further case.
-- ask Outcome? COC(=O)C(F)(F)C(F)(F)C(F)(F)F
-- reply inactive

* * *

Test: CCTE_Shafer_MEA_dev_network_spike_peak: CCTE's Neural Network Formation Assay for Mean Number of Electrodes in Network Spike, Shafer Lab (AID 2284049)
Active and inactive are the calls of the source. The calls were made as follows: active = hit-call score of the fitted dose curve at least 0.9, where 1 is the maximum; inactive = score below 0.9.
# valid calls are T for active, F for inactive; nothing else

-- ask Can you look up the reported call for O=C(OC(=O)C(F)(F)C(F)(F)F)C(F)(F)C(F)(F)F for me?
-- reply F

-- ask Please share the test call associated with O=C(CCCN1CCC(O)(c2ccc(Cl)cc2)CC1)c1ccc(F)cc1 .
-- reply T

-- ask Outcome logged for CN(Cc1cnc2nc(N)nc(N)c2n1)c1ccc(C(=O)N[C@@H](CCC(=O)O)C(=O)O)cc1 in this assay:
-- reply T

-- ask Please state the recorded outcome for this compound: CC(=O)Nc1ccc(O)cc1
-- reply F

-- ask Query: recorded result category for O=C(F)C(F)(F)C(F)(F)C(F)(F)C(=O)F in this test
-- reply F

More entries:
-- ask Check the results log: what was the call for FC(F)=C(F)C(F)(F)C(F)(F)C(F)(F)C(F)F ?
-- reply F

-- ask Assay outcome for CN(CCO)S(=O)(=O)C(F)(F)C(F)(F)C(F)(F)C(F)(F)C(F)(F)C(F)(F)C(F)(F)C(F)(F)F : what was it?
-- reply F

* * *

Assay: Tanguay_ZF_120hpf_TCHR: Oregon State University Tanguay Lab 120 Hour Post-fertilization zebrafish Assay for Touch Responsive (AID 2284403)
Active and inactive are the calls of the source. Rule for the calls: active = hit-call score of the fitted dose curve at least 0.9, where 1 is the maximum; inactive = score below 0.9.
Endpoint Name: outcome

-- ask Which outcome value is on record for O=C(O)C(F)(F)OC(F)(F)C(F)(F)OC(F)(F)C(F)(F)OC(F)(F)C(F)(F)C(F)(F)C(F)(F)F ?
-- reply inactive

-- ask Give the measured outcome of C=CC(=O)OCCC(F)(F)C(F)(F)C(F)(F)C(F)(F)C(F)(F)C(F)(F)C(F)(F)C(F)(F)F .
-- reply inactive

-- ask Item O=P(O)(O)CCC(F)(F)C(F)(F)C(F)(F)C(F)(F)C(F)(F)C(F)(F)C(F)(F)C(F)(F)F has what recorded outcome?
-- reply inactive

-- ask What does the record list as outcome for O=C(O)CCC(F)(F)C(F)(F)C(F)(F)C(F)(F)C(F)(F)F ?
-- reply inactive

Next compound, outcome to be filled in.
-- ask So what's the measured outcome for this one? O=C(CC(=O)C(F)(F)C(F)(F)C(F)(F)F)c1cccs1
-- reply inactive

* * *

Read-out: Interleukin-8 (IL8), CXCL8 (gene 3576)
Assay: BSK_CASM3C_IL8: BioMAP Diversity Plus: CASM3C Assay for Interleukin-8 (IL8) Biomarker Activity (AID 2283042);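 also: IL-8 protein level quantified by ELISA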
Settings: primary human coronary artery smooth muscle cells; actives raise or lower the signal
Calls of active or inactive are those of the source. The calls were made as follows: active = hit-call score of the fitted dose curve at least 0.9, where 1 is the maximum; inactive = score below 0.9.
Select the correct class. Options are active, inactive and nothing else.

Examples from the recorded data:
-- ask How did this test come out for CN(Cc1cnc2nc(N)nc(N)c2n1)c1ccc(C(=O)N[C@@H](CCC(=O)O)C(=O)O)cc1 ?
-- reply inactive

-- ask Outcome? O=C(NCc1ncc(C(F)(F)F)cc1Cl)c1c(Cl)cccc1Cl
-- reply inactive

-- ask I'd appreciate the recorded outcome for Cc1cccc2c1ccc1ccccc12 from this test.
-- reply inactive

-- ask Test call for this compound, please: CCCCCCCCCCCCCCCCCC[N+](C)(C)Cc1ccccc1
-- reply active

-- ask Lab log entry: COCN(COC)c1nc(N(COC)COC)nc(N(COC)COC)n1 — outcome as called in the assay?
-- reply inactive

-- ask What outcome does the record of this test show for COC1=CC(=O)C[C@@H](C)[C@]12Oc1c(Cl)c(OC)cc(OC)c1C2=O ?
-- reply inactive

Kindly consider the entry below.
-- ask How did this test come out for CN(C)c1ccc(C(=C2C=CC(=[N+](C)C)C=C2)c2ccccc2)cc1 ?
-- reply active

* * *

Assay: CCTE_Shafer_MEA_dev_mutual_information_norm: CCTE's Neural Network Formation Assay for Mutual Information Normalization, Shafer Lab (AID 2284091)
Calls of active or inactive are those of the source. Rule for the calls: active = hit-call score of the fitted dose curve at least 0.9, where 1 is the maximum; inactive = score below 0.9.
Returns: one label drawn from active, inactive

Answered examples (8):
-- ask Which outcome was entered for the compound O=C1NS(=O)(=O)c2ccccc21 in this test?
-- reply inactive

-- ask Lab log entry: O=C(CCCN1CCC(O)(c2ccc(Cl)cc2)CC1)c1ccc(F)cc1 — outcome as called in the assay?
-- reply active

-- ask Fill in: this test's call for C=CC(F)(F)C(F)(F)C(F)(F)C(F)(F)F is ___
-- reply inactive

-- ask Which result was noted for this compound in the test: Nc1ccn([C@@H]2O[C@H](CO)[C@@H](O)C2O)c(=O)n1 (stereo not given in full)
-- reply active

-- ask Could you kindly confirm the outcome this assay logged for O=CC(F)(F)C(F)(F)C(F)(F)F ?
-- reply inactive

-- ask Please share the test call associated with COC(=O)C(F)(F)C(F)(F)C(F)(F)C(F)(F)C(F)(F)F .
-- reply inactive

-- ask How did this test come out for O=C(O)C(F)(F)OC(F)(F)C(F)(F)OC(F)(F)C(F)(F)OC(F)(F)C(F)(F)C(F)(F)C(F)(F)F ?
-- reply inactive

-- ask Tell me the recorded outcome of this test for O=C(CC(=O)C(F)(F)C(F)(F)C(F)(F)F)c1cccs1 .
-- reply inactive

---
-- ask Recorded test outcome, item O=C(F)C(F)(F)C(F)(F)C(F)(F)C(=O)F
-- reply inactive

-- ask Could you please tell me the result logged for COC(=O)C(F)(F)C(F)(F)C(F)(F)F in this assay?
-- reply inactive

-- ask Assay result, entry FC(F)=C(F)C(F)(F)C(F)(F)C(F)(F)C(F)F — outcome?
-- reply inactive

-- ask Tell me the recorded outcome of this test for CN(CCO)S(=O)(=O)C(F)(F)C(F)(F)C(F)(F)C(F)(F)C(F)(F)C(F)(F)C(F)(F)C(F)(F)F .
-- reply inactive

-- ask Call for entry CN(C)CCOC(c1ccccc1)c1ccccc1 :
-- reply inactive

-- ask Call for entry O=C(C=C(O)C(F)(F)F)C(F)(F)F :
-- reply inactive

-- ask Per the assay record, what outcome was assigned to O=C(F)C(F)(F)C(F)(F)C(F)(F)C(F)F ?
-- reply inactive

* * *

Read-out: solute carrier (SLCO1B1), SLCO1B1 (gene 10599)
Experiment: LTEA_HepaRG_SLCO1B1: Life Technologies and Expression Analysis (LTEA) Assay for solute carrier (SLCO1B1) using HepaRG (AID 2283530)
Conditions: mRNA level, 48 h; actives raise or lower the signal
Activity calls are given as the source filed them. Rule for the calls: active = hit-call score of the fitted dose curve at least 0.9, where 1 is the maximum; inactive = score below 0.9.
Answer with one of the outcomes given here: active, inactive

Please review the entries below; each comes with its answer.
-- ask Could you please tell me the result logged for O=C(CCCN1CCC(O)(c2ccc(Cl)cc2)CC1)c1ccc(F)cc1 in this assay?
-- reply active

-- ask Dear all, I need the recorded test outcome for CN(C)CCOC(c1ccccc1)c1ccccc1 , thank you.
-- reply inactive

-- ask Dear all, I need the recorded test outcome for CCCCc1oc2ccccc2c1C(=O)c1cc(I)c(OCCN(CC)CC)c(I)c1 , thank you.
-- reply active

-- ask Which result was noted for this compound in the test: CCCCC(CC)C(=O)O (configuration not stated)
-- reply inactive

-- ask Assay result, entry CCCCCCCCCCCCCCC — outcome?
-- reply inactive

-- ask Recorded test outcome, item OCC(CO)(CBr)CBr
-- reply inactive

Continue with the next compound.
-- ask Lab log entry: O=C1NS(=O)(=O)c2ccccc21 — outcome as called in the assay?
-- reply inactive

* * *

Experiment: ATG_NRF2_ARE_CIS: Attagene CIS-FACTORIAL HepG2 Assay for human Nuclear Factor Erythroid 2 Related Factor 2 (NFR2) response to Antioxidant Response Elements (ARE) (AID 2282992)
Conditions: HepG2 Attagene ARE/NRF2 reporter, transcription factor activity; actives raise or lower the signal
Calls of active or inactive are those of the source. How the source made its calls: active means hit-call score of the fitted dose curve at least 0.9, where 1 is the maximum; inactive means score below 0.9.
One label from this list, please: active, inactive

Worked cases, answers included:
-- ask Per the assay record, what outcome was assigned to Oc1cccc2c(O)cccc12 ?
-- reply active

-- ask Recorded test outcome, item FC(OC(F)(F)C(F)(F)C(F)(F)F)C(F)(F)F (centres undefined)
-- reply inactive

-- ask What did this assay record as the result for CCOC(OCC)C(=O)c1ccccc1 ?
-- reply inactive

-- ask What call does the record list for CCOC=O ?
-- reply inactive

-- ask Called result for CCC(C)c1nccnc1OC (centres undefined)
-- reply inactive

-- ask // return assay outcome for O=C(F)C(F)(F)C(F)(F)C(F)(F)C(=O)F
-- reply inactive

Next:
-- ask For CC(C)(c1ccc(Oc2ccc(N)cc2)cc1)c1ccc(Oc2ccc(N)cc2)cc1 , which call appears in the assay record?
-- reply active

-- ask What classification did O=C1c2ccc(O)c(O)c2C(=O)c2c(O)ccc(O)c21 end up with in this test?
-- reply active

-- ask Which outcome was assigned to CC(O)COc1ccccc1 (centres undefined) in this test?
-- reply inactive

-- ask // return assay outcome for FC(F)=C(F)C(F)(F)C(F)(F)C(F)(F)C(F)F
-- reply inactive

-- ask Entry NNC(=O)CCCCC(=O)NN : call = ?
-- reply inactive
